Below: a set of entries, each annotated with reported pIC50.
Molecular target: Type-2 angiotensin II receptor (Homo sapiens)
Sequence (P50052 whole entry): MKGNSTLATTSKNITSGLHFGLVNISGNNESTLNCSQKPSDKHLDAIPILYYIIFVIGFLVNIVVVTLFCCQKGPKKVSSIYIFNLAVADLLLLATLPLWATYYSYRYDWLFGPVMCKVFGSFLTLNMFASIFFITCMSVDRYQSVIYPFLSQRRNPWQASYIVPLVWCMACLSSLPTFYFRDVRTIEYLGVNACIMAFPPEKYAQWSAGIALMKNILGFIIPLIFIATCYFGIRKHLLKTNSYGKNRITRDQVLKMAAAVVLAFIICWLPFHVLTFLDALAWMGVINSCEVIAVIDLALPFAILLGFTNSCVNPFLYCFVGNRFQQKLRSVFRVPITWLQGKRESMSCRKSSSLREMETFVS
Note on pIC50: it is the negative log10 of concentration, concentration in mol/L.

Consider the reported pIC50 for these molecules:
[
  {
    "SMILES": "CCCc1nc(CN2CCN(c3ncccn3)CC2)c(C(=O)O)n1Cc1ccc(-c2ccccc2-c2nn[nH]n2)cc1",
    "TGT": "Type-2 angiotensin II receptor (Homo sapiens)",
    "MEASUREMENT_LABEL": "pIC50",
    "ASSAY_RESULT": 7.10
  },
  {
    "SMILES": "CCCc1nc(CN(Cc2ccccc2)C(=O)OC(C)(C)C)c(C(=O)O)n1Cc1ccc(-c2ccccc2-c2nn[nH]n2)cc1",
    "TGT": "Type-2 angiotensin II receptor (Homo sapiens)",
    "MEASUREMENT_LABEL": "pIC50",
    "ASSAY_RESULT": 6.00
  },
  {
    "SMILES": "CCCc1nc(CN2CCN(c3ccccn3)CC2)c(C(=O)O)n1Cc1ccc(-c2ccccc2S(=O)(=O)NC(=O)C2CC2)cc1",
    "TGT": "Type-2 angiotensin II receptor (Homo sapiens)",
    "MEASUREMENT_LABEL": "pIC50",
    "ASSAY_RESULT": 6.22
  }
]

Data request: # query: pIC50 of entry `CCc1nc(CN2CCN(c3ccccn3)CC2)c(C(=O)O)n1Cc1ccc(-c2ccccc2-c2nnn[nH]2)cc1`
Data returned: 6.30

Data request: # query: pIC50 of entry `CCCc1nc(CNC(=O)C(c2ccccc2)c2ccccc2)c(C(=O)O)n1Cc1ccc(-c2ccccc2-c2nn[nH]n2)cc1`
Data returned: 6.22

Data request: # query: pIC50 of entry `CCCc1nc(CN(Cc2ccccc2)C(=O)c2ccccc2)c(C(=O)O)n1Cc1ccc(-c2ccccc2S(=O)(=O)NC(=O)OCC(C)C)cc1`
Data returned: 7.00

Data request: # query: pIC50 of entry `CCCCc1nc(CN2CCN(c3ccccn3)CC2)c(C(=O)O)n1Cc1ccc(-c2ccccc2-c2nn[nH]n2)cc1`
Data returned: 6.15

Data request: # query: pIC50 of entry `CCCc1nc(CN2CCC(c3ccccc3)CC2)c(C(=O)O)n1Cc1ccc(-c2ccccc2-c2nn[nH]n2)cc1`
Data returned: 6.40

----------
Target sequence: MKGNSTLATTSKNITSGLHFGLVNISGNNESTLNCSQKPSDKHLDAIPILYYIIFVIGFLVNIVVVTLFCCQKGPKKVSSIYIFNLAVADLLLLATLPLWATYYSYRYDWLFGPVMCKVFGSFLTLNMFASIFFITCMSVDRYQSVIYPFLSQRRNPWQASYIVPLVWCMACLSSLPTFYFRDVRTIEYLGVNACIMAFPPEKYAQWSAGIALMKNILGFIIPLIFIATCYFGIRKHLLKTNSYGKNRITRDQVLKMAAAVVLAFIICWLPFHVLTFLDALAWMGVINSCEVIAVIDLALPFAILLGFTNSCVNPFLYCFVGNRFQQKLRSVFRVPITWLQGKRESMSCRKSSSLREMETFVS
Below: a set of entries, each annotated with reported IC50.
Include the unit right after the number.

[
  {
    "SMILES": "CCCc1nc(CN(CC(=O)O)C(=O)C(c2ccccc2)c2ccccc2)c(C(=O)O)n1Cc1ccc(-c2ccccc2-c2nn[nH]n2)cc1",
    "IC50": "7000 nM"
  },
  {
    "SMILES": "CCCc1nc(CN2CCN(c3ccccc3)C[C@H]2Cc2ccccc2)c(C(=O)O)n1Cc1ccc(-c2ccccc2-c2nn[nH]n2)cc1",
    "IC50": "1000 nM"
  },
  {
    "SMILES": "CCCc1nc(CN2CCN(c3ccccn3)CC2)c(C(=O)O)n1Cc1ccc(-c2ccccc2-c2nn[nH]n2)cc1",
    "IC50": "60 nM"
  }
]

Data request: # query: IC50 of entry `CCCc1nc(CN(Cc2ccccc2)C(=O)Cc2ccccc2)c(C(=O)O)n1Cc1ccc(-c2ccccc2-c2nn[nH]n2)cc1`
Data returned: 400 nM

Data request: # query: IC50 of entry `CCCc1nc(CN2CCN(C(=O)C(c3ccccc3)c3ccccc3)CC2)c(C(=O)O)n1Cc1ccc(-c2ccccc2-c2nn[nH]n2)cc1`
Data returned: 1000 nM

Data request: # query: IC50 of entry `CCCc1nc(CN2CCN(C(=O)C3CC3)CC2)c(C(=O)O)n1Cc1ccc(-c2ccccc2-c2nnn[nH]2)cc1`
Data returned: 6000 nM

Data request: # query: IC50 of entry `CCCc1nc(CN2CCN(c3ccccn3)CC2)c(C=O)n1Cc1ccc(-c2ccccc2-c2nn[nH]n2)cc1`
Data returned: 1000 nM

----------
Below: a set of entries, each annotated with reported ED30.
tested on: Rattus norvegicus; test: Compound was tested for its antihypertensive activity after oral administration to renal hypertensive rats; format: functional

Consider the reported ED30 for these molecules:
[
  {
    "SMILES": "CCCc1nc(C(=O)N2CCN(c3ccccn3)CC2)c(C(=O)O)n1Cc1ccc(-c2ccccc2-c2nnn[nH]2)cc1",
    "TGT": "Rattus norvegicus",
    "MEASUREMENT_LABEL": "ED30",
    "ASSAY_RESULT": "~3 mg/kg"
  },
  {
    "SMILES": "CCCc1nc(CN2CCN(c3ccccc3)CC2)c(C(=O)O)n1Cc1ccc(-c2ccccc2-c2nnn[nH]2)cc1",
    "TGT": "Rattus norvegicus",
    "MEASUREMENT_LABEL": "ED30",
    "ASSAY_RESULT": "> 3 mg/kg"
  },
  {
    "SMILES": "CCCCCC(=O)NS(=O)(=O)c1ccccc1-c1ccc(Cn2c(CCC)nc(CN3CCN(c4ccccn4)CC3)c2C(=O)O)cc1",
    "TGT": "Rattus norvegicus",
    "MEASUREMENT_LABEL": "ED30",
    "ASSAY_RESULT": "> 10 mg/kg"
  }
]

Now turn to the next molecule.
Data request: Write down the reported ED30 of `CCCc1nc(CN2CCN(c3ccccn3)CC2)c(C(=O)O)n1Cc1ccc(-c2ccccc2-c2nn[nH]n2)cc1` , test system: Rattus norvegicus.
Data returned: > 3 mg/kg
